# study target: Purine nucleoside phosphorylase (Homo sapiens)
# Sequence (P00491 whole entry): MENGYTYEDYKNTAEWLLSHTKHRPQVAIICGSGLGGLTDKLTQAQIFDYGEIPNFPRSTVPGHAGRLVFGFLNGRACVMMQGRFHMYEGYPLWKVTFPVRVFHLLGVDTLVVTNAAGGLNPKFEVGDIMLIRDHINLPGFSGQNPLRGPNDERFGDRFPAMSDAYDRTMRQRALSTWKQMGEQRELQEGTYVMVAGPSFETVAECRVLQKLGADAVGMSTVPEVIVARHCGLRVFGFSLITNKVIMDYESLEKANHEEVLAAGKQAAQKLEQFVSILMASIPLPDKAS
# IC50 annotations
Write it as a number; the unit nM goes unstated.

Cc1ccsc1CC1=Nc2c(O)nc(N)nc2C1    47600
Nc1nc(O)c2[nH]c(Cc3ccco3)nc2n1    17900
Nc1nc(O)c2c(n1)CC(Cc1ccco1)=N2    57
Nc1nc(O)c2c(n1)CC(NCc1ccsc1)=N2    630
Cc1ccsc1CNC1=Nc2c(O)nc(N)nc2C1    4050

Tested on Purine nucleoside phosphorylase (Homo sapiens): `Nc1nc(O)c2c(n1)CC(NCc1ccccc1)=N2` . Observed IC50: 850

Tested on Purine nucleoside phosphorylase (Homo sapiens): `Nc1nc(O)c2[nH]c(Nc3cccnc3)nc2n1` . Observed IC50: 21900

Tested on Purine nucleoside phosphorylase (Homo sapiens): `Nc1nc2nc(NCc3ccsc3)[nH]c2c(=O)[nH]1` . Observed IC50: 85

Tested on Purine nucleoside phosphorylase (Homo sapiens): `Nc1nc(O)c2[nH]c(NCc3ccco3)nc2n1` . Observed IC50: 250

Tested on Purine nucleoside phosphorylase (Homo sapiens): `Nc1nc(O)c2c(n1)CC(NCc1ccco1)=N2` . Observed IC50: 750

Tested on Purine nucleoside phosphorylase (Homo sapiens): `Nc1nc(O)c2c(n1)CC(Cc1ccsc1)=N2` . Observed IC50: 67

Tested on Purine nucleoside phosphorylase (Homo sapiens): `Nc1nc2nc(-c3cccnc3)[nH]c2c(=O)[nH]1` . Observed IC50: 57000

Tested on Purine nucleoside phosphorylase (Homo sapiens): `Nc1nc(O)c2c(n1)CC(NCc1cccs1)=N2` . Observed IC50: 1000

Tested on Purine nucleoside phosphorylase (Homo sapiens): `Nc1nc2nc(NCc3ccccc3)[nH]c2c(=O)[nH]1` . Observed IC50: 470

Tested on Purine nucleoside phosphorylase (Homo sapiens): `Nc1nc(O)c2[nH]c(Cc3cccs3)nc2n1` . Observed IC50: 11000

Tested on Purine nucleoside phosphorylase (Homo sapiens): `Nc1nc(O)c2[nH]c(NCc3cccs3)nc2n1` . Observed IC50: 160

Tested on Purine nucleoside phosphorylase (Homo sapiens): `Cc1ccsc1Cc1nc2nc(N)[nH]c(=O)c2[nH]1` . Observed IC50: 47600

Tested on Purine nucleoside phosphorylase (Homo sapiens): `Nc1nc(O)c2c(n1)CC(Cc1cccs1)=N2` . Observed IC50: 30

Tested on Purine nucleoside phosphorylase (Homo sapiens): `Nc1nc(O)c2[nH]c(Cc3ccsc3)nc2n1` . Observed IC50: 11000
